Test system: A498 renal
protocol-notes: NCI tumour cell line growth inhibition, 48 h
Reported TGI values follow for various molecules

Previously resolved entries follow.
COc1ccccc1/C=C/[N+](=O)[O-]; 5.03 µM
Cc1c(S(C)(=O)=O)c(-c2cc(F)cc(N3CCN(c4ccc(NS(=O)(=O)c5ccc(N[C@H](CCN6CCC(C(=O)OCCCP(=O)(O)O)CC6)CSc6ccccc6)c(S(=O)(=O)C(F)(F)F)c5)cc4)CC3)c2)c(-c2ccc(Cl)cc2)n1C(C)C; > 100 µM
COC(=O)C(C(=O)C(=O)Nc1ccc(C(F)(F)F)cc1[N+](=O)[O-])c1csc(-n2nc(-c3ccccc3)cc2-c2ccccc2)n1 (centres undefined); > 100 µM
CCOC(=O)C(=[N+]=[N-])C(=O)Nc1nn2nnnc2c2ccccc12; > 100 µM
COc1cc(CCN)c2c(c1OC)SSSSS2; 3.64 µM
Cc1ccncc1.F[B-](F)(F)F.[Pt+2].c1ccc(-c2cccc(-c3ccccn3)n2)nc1; 45.1 µM
O=C(Nc1cccs1)c1c(O)[nH]c(=S)[nH]c1=O; > 100 µM
CC[N+](C)(CC)CCC(O)(c1ccccc1)c1ccccc1; > 100 µM

Problem: Find the recorded TGI belonging to Cc1cc(=O)n2nc(SCc3ccccc3)sc2n1 and report it.
Result: > 100 µM

====

Test system: HCT-15 colon
protocol-notes: NCI tumour cell line growth inhibition, 48 h
Reported TGI values follow for various compounds
Give the value, in units of µM, as a plain number.

Previously resolved entries follow.
COc1ccccc1N=C(N)N/N=C/c1c[nH]c2ccccc12; 15.7
O=C(c1ccc2ccccc2c1)c1c(C(F)(F)F)n([O-])c2cc(F)c(F)cc2[n+]1=O; 4.37

Problem: Find the recorded TGI belonging to Cc1ccc(S(=O)(=O)NNC(=O)c2cc(C)ccc2NC(=O)C23CC4CC(CC(C4)C2)C3)cc1 and report it.
Result: 66.8

Problem: # iterate: CC(C)C1(O)C(c2ccccc2)=C(c2ccccc2)C(c2ccccc2)=C1c1ccccc1
Result: 46.8

====

System: 786-0 renal
protocol-notes: NCI tumour cell line growth inhibition, 48 h; in the data active = GI50 below about 0.43 µM; inactive = the rest
Classes to choose from: active, inactive

Look over these answered cases.
Cc1ccc(/C(=N\N=C(N)N)c2ccccc2)cc1; inactive
CCN(CC)CCNc1ccc([N+](=O)[O-])c2sc3ccccc3c(=O)c12; inactive
O=C1c2ccc([N+](=O)[O-])cc2-c2c1c1ccccc1c(=O)n2CCCNCCCNCCCn1c2c(c3ccc([N+](=O)[O-])cc3c1=O)C(=O)c1ccccc1-2; inactive
CN(C)c1ccc([O-])cc1.CN(C)c1ccc([O-])cc1.CN(C)c1ccc([O-])cc1.CN(C)c1ccc([O-])cc1.[Ti+4]; inactive
CCCC(=O)Nc1cc(C(=O)N2C[C@@H]3C[C@]34C2=CC(=O)c2[nH]cc(C)c24)n(COC)c1; inactive
O=Nc1c(-c2c(O)[nH]c3ccc([N+](=O)[O-])cc23)[nH]c2ccc(O)cc12; active
Oc1ccc(C(c2ccc(O)cc2)c2ccc(Cl)cn2)cc1; inactive
COc1ccc(C2SCC(=O)N2NC(=O)C(O)c2ccccc2)cc1OC (configuration not stated); inactive
Cc1ccc(S(=O)(=O)NCCNC2=CC(=O)c3nc4ccccc4c4ccnc2c34)cc1; inactive
COc1ccc2c(c1)/C(=C\c1cccnc1)C(=O)N2; inactive

Problem: I'd appreciate the recorded outcome for COc1cc(CCN)c2c(c1OC)SSSSS2 from this test.
Result: inactive

Problem: # iterate: O=C(c1ccc2ccccc2c1)c1c(C(F)(F)F)n([O-])c2cc(F)c(F)cc2[n+]1=O
Result: inactive

====

Test system: SN12C renal
protocol-notes: NCI tumour cell line growth inhibition, 48 h
measurement-label: TGI

Problem: Find the recorded TGI belonging to Cc1ccc(C(=O)N/N=C(\N=Nc2cccc(Cl)c2)c2ccc(N(CCC#N)CCC#N)cc2C)cc1 and report it.
Result: > 100 µM

====

Reported TGI values follow for various compounds
Test system: SK-MEL-2 melanoma
protocol-notes: NCI tumour cell line growth inhibition, 48 h

Previously resolved entries follow.
COc1ccccc1N=C(N)N/N=C/c1c[nH]c2ccccc12; 19.2 µM
C=C(CCC(C)C1CCC2C3=C(C(=O)CC21C)C1(C)CCC(=O)[C@@H](C)C1CC3=O)C(C)C(=O)O (stereo not given in full); > 100 µM
Cc1ccc(S(=O)(=O)NCCNC2=CC(=O)c3nc4ccccc4c4ccnc2c34)cc1; > 100 µM

Problem: Find the recorded TGI belonging to CCOC(=O)C1=C(C(=O)c2ccc(C)cc2)C(c2cccc([N+](=O)[O-])c2)C(C(=O)c2ccc(C)cc2)=C(C(=O)OCC)N1 and report it.
Result: > 100 µM

Problem: # iterate: Cc1c(S(C)(=O)=O)c(-c2cc(F)cc(N3CCN(c4ccc(NS(=O)(=O)c5ccc(N[C@H](CCN6CCC(C(=O)OCCCP(=O)(O)O)CC6)CSc6ccccc6)c(S(=O)(=O)C(F)(F)F)c5)cc4)CC3)c2)c(-c2ccc(Cl)cc2)n1C(C)C
Result: > 100 µM

Problem: # iterate: N#CC(C#N)=C1C(C#N)=C(N)NC12OCCO2
Result: > 100 µM

====

Tested on: DU-145 prostate
protocol-notes: NCI tumour cell line growth inhibition, 48 h
measurement-label: TGI

CCCn1c(SC)nc(COC(=O)NC)c1COC(=O)NC; > 100 µM

Below: the item to evaluate.
Problem: Find the recorded TGI belonging to CCOP(=O)(OCC)C(Nc1cccc(F)c1)c1ccccc1 (stereo unspecified) and report it.
Result: > 100 µM

====

Test system: LOX IMVI melanoma
protocol-notes: NCI tumour cell line growth inhibition, 48 h; in the data active = GI50 below about 0.43 µM; inactive = the rest
Classes to choose from: 1 for active, 0 for inactive

Look over these answered cases.
Cc1c(S(C)(=O)=O)c(-c2cc(F)cc(N3CCN(c4ccc(NS(=O)(=O)c5ccc(N[C@H](CCN6CCC(C(=O)OCCCP(=O)(O)O)CC6)CSc6ccccc6)c(S(=O)(=O)C(F)(F)F)c5)cc4)CC3)c2)c(-c2ccc(Cl)cc2)n1C(C)C; 0
O=Nc1c(-c2c(O)[nH]c3ccc([N+](=O)[O-])cc23)[nH]c2ccc(O)cc12; 1
CN1CCN(c2ccc(NC(=O)c3nc4ccc5[nH]ncc5c4c4c3CCCC4)cc2C(F)(F)F)CC1; 0
Cc1ccncc1.F[B-](F)(F)F.[Pt+2].c1ccc(-c2cccc(-c3ccccn3)n2)nc1; 0
Oc1ccc(C(c2ccc(O)cc2)c2ccc(Cl)cn2)cc1; 1

Problem: I'd appreciate the recorded outcome for COc1ccc(Nc2ncc(Br)c(NCCCNC(=O)C3CCC3)n2)cc1 from this test.
Result: 0

Problem: # iterate: O=C(/C=C/C12c3ccccc3C(c3ccccc31)C1C(=O)N(c3ccccc3)C(=O)C12)c1ccccc1 (configuration not stated)
Result: 0

Problem: # iterate: C[C@H](NC(=O)[C@@H]1CSSC[C@@H](NC(=O)c2nc3ccccc3cc2O)C(=O)NCC(=O)N1C)c1ccccc1
Result: 0

Problem: # iterate: C=C1SC(=Nc2c(C)cc(C)cc2C)N(C(=O)c2sc3ccccc3c2Cl)C12CCCCC2
Result: 0

Problem: # iterate: O=[N+]([O-])c1ccc(S(=O)Cc2ccccc2)c([N+](=O)[O-])c1 (configuration not stated)
Result: 0

Problem: # iterate: COc1ccc(N2Cc3cnc(Nc4ccccc4)nc3N([C@@H]3CC[C@@H](O)C3)C2=O)cc1
Result: 0

Problem: # iterate: CC1(C)CC[C@H](Nc2ncc(C(F)(F)F)c(-c3c[nH]c4c(P(C)(C)=O)c(C#N)ccc34)n2)CN1
Result: 1

====

Test system: PC-3 prostate
protocol-notes: NCI tumour cell line growth inhibition, 48 h
Reported TGI values follow for various compounds

Previously resolved entries follow.
Cc1ccc(S(=O)(=O)NCCNC2=CC(=O)c3nc4ccccc4c4ccnc2c34)cc1; 49.8 µM
COC(=O)[C@H]1[C@@H](C(C)C)O[C@@H](C(C)C)O[C@H]1C(F)(F)F; > 100 µM
CN1CCN(c2c(Cl)cc(Cl)c3[nH]c4ccccc4c(=O)c23)CC1; 23.3 µM
CCOP(=O)(OCC)C(Nc1cccc(F)c1)c1ccccc1 (centres undefined); > 100 µM
COc1ccc(-c2oc3c(OC)c(OC)c(OC)c(O)c3c(=O)c2OC)cc1OC; > 93 µM
Cc1cc(C)c(P2C(=C(O[Si](C(C)C)(C(C)C)C(C)C)C(C)(C)C)C2(c2ccccc2)c2ccccc2)c(C)c1 (centres undefined); > 100 µM
C/C=C\C(CC(=O)NCCc1cn(C(=O)OCc2ccccc2)c2ccccc12)CC(=O)OC (centres undefined); > 100 µM
O=C(/C=C/C12c3ccccc3C(c3ccccc31)C1C(=O)N(c3ccccc3)C(=O)C12)c1ccccc1 (centres undefined); > 100 µM

Problem: Find the recorded TGI belonging to Cc1ccc(C(=O)N/N=C(\N=Nc2cccc(Cl)c2)c2ccc(N(CCC#N)CCC#N)cc2C)cc1 and report it.
Result: > 100 µM
